target: ZFP SBS#656 (synthetic); test: EMSA; conditions: tags: MBP fusion
Sequence (chain, as listed by the source): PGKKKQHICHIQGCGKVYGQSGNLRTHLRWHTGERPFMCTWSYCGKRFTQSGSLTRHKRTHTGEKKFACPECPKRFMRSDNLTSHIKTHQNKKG
value_type: pKd
# pKd is unitless: minus log10 of the molar concentration; print number only

Qu. In one line, give reported pKd of the entry TAGGCATAAA (dsDNA) DNA 1: TAGGCATAAA DNA 2: TTTATGCCTA .
Ans. 6.27

All values here come from patent US20030068675.
